- System: K98450-129-R-PDC complex spheroid growth, percent test/control
- MEASUREMENT_PROTOCOL: Anticancer human tumor K98450-129-R-PDC patient-derived colon adenocarcinoma cell line growth inhibition [RAS]
- PARTICULARS: second compound 0.000949 µM; first compound 0.000949 µM; active compounds read low
ASSAY_ENDPOINT: viability, T/C (%)
Just the number please, in %, no unit attached.

Req: I have this molecule here, CC1(C)CCC(Nc2ncc(C(F)(F)F)c(-c3c[nH]c4c(P(C)(C)=O)c(C#N)ccc34)n2)CN1 (centres undefined) + CCn1c(-c2cccnc2C(C)OC)c2c3cc(ccc31)N1CCOC(CC(NC(=O)C(C(C)C)N(C)C(=O)C3(F)CCN(C(=O)C#CC(C)(C)N(C)C)CC3)C(=O)N3CCCC(N3)C(=O)OCC(C)(C)C2)C1 , and I need its recorded viability, T/C.
Resp: 88.2

Req: # lookup: viability, T/C of CCc1c2c(nc3ccc(O)cc13)-c1cc3c(c(=O)n1C2)COC(=O)[C@]3(O)CC + CCn1c(-c2cccnc2C(C)OC)c2c3cc(ccc31)N1CCOC(CC(NC(=O)C(C(C)C)N(C)C(=O)C3(F)CCN(C(=O)C#CC(C)(C)N(C)C)CC3)C(=O)N3CCCC(N3)C(=O)OCC(C)(C)C2)C1
Resp: 71.1

Req: // query viability, T/C value for entry CC1(C)CCC(Nc2ncc(C(F)(F)F)c(-c3c[nH]c4c(P(C)(C)=O)c(C#N)ccc34)n2)CN1 (centres undefined) + CCn1c(-c2cc(N3CCN(C)CC3)cnc2C(C)OC)c2c3cc(ccc31)-c1csc(n1)CC(NC(=O)C1CC1C)C(=O)N1CCCC(N1)C(=O)OCC(C)(C)C2
Resp: 100

Req: I'd like to know its viability, T/C. The molecule in question is CCc1c2c(nc3ccc(O)cc13)-c1cc3c(c(=O)n1C2)COC(=O)[C@]3(O)CC + CCn1c(-c2cc(N3CCN(C)CC3)cnc2C(C)OC)c2c3cc(ccc31)-c1csc(n1)CC(NC(=O)C1CC1C)C(=O)N1CCCC(N1)C(=O)OCC(C)(C)C2
Resp: 105

---

- Tested on: K98450-129-R-PDC complex spheroid growth, percent test/control
- MEASUREMENT_PROTOCOL: Anticancer human tumor K98450-129-R-PDC cell line growth inhibition [RAS];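 also: luminescence used as a proxy for viable cell amount; spheroids exposed to agents for seven days before the viability readout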
- PARTICULARS: second compound 1 µM; first compound 0.1 µM; active compounds read low
ASSAY_ENDPOINT: viability, T/C (%)
Answer in %, number only, no unit symbol.

Req: # viability, T/C lookup, item CCC(CC)c1cc(NC2CCC(N)C2)n2nccc2n1 (stereo not drawn) + C=CC(=O)N1CCN(c2nc(OCC3CCCN3C)nc3c(F)c(-c4nc(N)cc(C)c4C(F)(F)F)c(Cl)cc23)C(C)C1
Resp: 31.9

Req: What value of measured viability, T/C is listed for CC(C)NCC(C(=O)N1CCN(c2ncnc3c2C(C)CC3O)CC1)c1ccc(Cl)cc1 (stereo not drawn) + C=CC(=O)N1CCN(c2nc(OCC3CCCN3C)nc3c(F)c(-c4nc(N)cc(C)c4C(F)(F)F)c(Cl)cc23)C(C)C1 ?
Resp: 32.7

Req: Tell me the measured viability, T/C of CCC(CC)c1cc(NC2CCC(N)C2)n2nccc2n1 (stereo not drawn) + C#Cc1c(F)ccc2cc(O)cc(-c3ncc4c(N5CC6CCC(C5)N6)nc(OCC56CCCN5CC(F)C6)nc4c3F)c12 , please.
Resp: 99.8

Taken from PubChem BioAssay AID2060891.
